- Tested on: SK-OV-3 ovarian
- assay: NCI tumour cell line growth inhibition, 48 h
measured_parameter: TGI

Look at this compound and give its reported TGI. S=C1C(=Nc2ccccc2)N(c2ccccc2)/C(=N\c2ccccn2)N1c1ccccc1
36 µM

Same thing, different compound: CS(=O)(=O)N(CCC#N)c1ccc(/C=N/NC(=O)CC(=O)Nc2cccc(Cl)c2)cc1
> 100 µM

What do we get for CS(=O)(=O)OCCN1CCN(C(=O)c2cccc3c(Nc4ccc(S(N)(=O)=O)cc4)c4ccccc4nc23)CC1 ?
> 100 µM

For C=CCC12CCC(=O)C=C1CCC1(C2)OCCO1 (stereo not drawn) then?
> 100 µM

How about COc1ccc(C(=C(I)c2ccccc2)c2ccc(OC)cc2)cc1 ?
> 100 µM

For O=C(NC1(C(=O)NNc2nnc(-c3ccccc3)c(-c3ccccc3)n2)C(c2ccccc2)C(c2ccccc2)=NN1c1ccccc1)c1ccccc1 (stereo not drawn) then?
> 100 µM

Check N#Cc1c(N2CCCC2)ncn(Cc2ccccc2)c1=S too.
> 100 µM

Check OCCCCC#Cc1ccccc1C#Cc1ccccc1F too.
58.4 µM

Cool, now O=c1c2ccccc2n2nnc3ccc(NCCCNCCNCCCNc4ccc5nnn6c7ccccc7c(=O)c4c56)c1c32
> 41.2 µM

Same again, this time with CC1(C)CN(c2ccccc2)C(=O)C1OC(=O)[C@@]1(C)C[C@@H]2C=C[C@H]1C2 (stereo partly drawn)
94.7 µM

Also need N/N=C1/C(=N/O)CCc2nonc21 , thanks.
> 100 µM

Ok, now CC(=N\O)/C(C)=N/O.CC(=N\O)/C(C)=N/O.CC(=N\O)/C(C)=N/O.CC(=N\O)/C(C)=N/O.[Cu].[Cu]
34.5 µM

Entry C=C1C(=O)O[C@H]2[C@H]1CC/C(CNC(=O)/C=C/c1cccc(OC)c1)=C\CC[C@@]1(C)O[C@@H]21 please
23.3 µM

Please answer likewise for CCCn1c(=O)c2ccccc2[n+]2c(-c3ccc([N+](=O)[O-])cc3)csc12
> 100 µM

Also need C=C1C(=O)O[C@H]2C/C(C)=C/CC/C(C)=C/CC[C@@](C)(O)[C@@H](I)C[C@@H]12 , thanks.
29.8 µM

Same question for Cc1nccn1S(=O)(=O)c1ccc(Br)cc1Br please.
> 100 µM

Would you kindly repeat that for CC1CCC2(NC1)OC1CC3[C@@H]4CC=C5C=CCC[C@]5(C)C4CC[C@]3(C)C1C2C (stereo partly drawn) ?
68.4 µM

Then CC1CC[C@@]2(OC1)O[C@H]1C[C@H]3[C@@H]4CC[C@H]5C[C@@H](OC6OC(CO)C(OC7OC(CO)C(OC8OC(CO)C(O)C(OC9OC(C)C(OC%10OC(C)C(O)C(O)C%10O)C(O)C9O)C8OC8OCC(O)C(O)C8O)C(O)C7O)C(O)C6O)CC[C@]5(C)[C@H]4CC(=O)[C@]3(C)[C@H]1[C@@H]2C (stereo partly drawn) ?
41.6 µM

One more compound: CCON=C1C(C)(C)C(C)(C)C(C)(C)C1(C)C
> 100 µM

Same for COC(=O)c1ccccc1C#CCCCOS(C)(=O)=O
> 10 µM

Cc1ccc(S(=O)(=O)NC(=O)NCCC(=O)O)cc1 ?
> 100 µM

Request: COc1ccc(S(=O)(=O)N/N=C/CN2C(=O)c3ccccc3C2=O)cc1OC
> 100 µM

Now try Nc1ccc(N=Nc2ccccc2)c(N)n1 .
> 100 µM

Next compound up: Cc1cc2ccccc2n1CC(=O)N1CCCC1
> 100 µM

Another compound to check: NS(=O)(=O)c1ccc(Nc2c3ccccc3nc3c(C(=O)NCCCN(CCO)CCO)cccc23)cc1
> 100 µM

Then CCOC(=O)/C(C#N)=C/c1ccc(CO)o1 ?
> 100 µM

COc1cc(N=Nc2ccccc2)cc(/C=N\[N-]C(N)=S)c1[O-].COc1cc(N=Nc2ccccc2)cc(/C=N\[N-]C(N)=S)c1[O-].[Fe+4] , same question.
> 100 µM

Continue with C[C@@H]1COCCN1c1nc(-c2cnc(N)cc2C(F)F)nc(N2[C@H](C)COC[C@@H]2C)n1
1.34 µM

Same thing, different compound: COC(=O)Nc1nc2ccc(Oc3ccc(NC(=O)Nc4cccc(Br)c4)cc3)cc2[nH]1
15.3 µM

What do we get for Cc1ccc(-n2c(O)c3c(N)n[nH]c3c(C#N)c2=O)cc1 ?
> 100 µM

And then CCOC(=O)c1cc2c(n1Cc1cc(OC)cc(OC)c1)-c1oncc1CCC2 , what is it?
> 100 µM

Also c1cc(C2CCCCC2)ccc1OCCCCCCN1CCNCC1 , if possible.
15.2 µM

Entry COC(=O)c1nc(-c2ccc3c(n2)C(=O)C(N)=C(OC)C3=O)c(N)c(-c2ccc(OC)c(OC)c2O)c1C please
3.73 µM

Field entry: NC1C2C(CC(=O)O)OCC=C3CN4CCC1(C(=O)C(=O)O)C4CC32 (stereo not drawn)
> 100 µM

Moving on to O=C(Nc1c(Cl)cc([N+](=O)[O-])cc1Cl)C(=O)C1C(=O)NC(=S)NC1=O
> 100 µM

Also COc1ccc(-c2nsc3c2NC(=O)CC3c2ccc3c(c2)OCO3)cc1 (stereo not drawn) , if possible.
> 100 µM

// same read-out, input: O=C(Nc1nnc(-c2ccccc2)o1)C(SC(=S)N1CCOCC1)c1ccccc1 (stereo not drawn)
> 100 µM

Thanks! And C=CCN(c1cc(OCc2ccccc2)c(NC(C)=O)cc1[N+](=O)[O-])S(C)(=O)=O ?
38.7 µM
